protocol.notes: Protein binding in mouse plasma assessed as free fraction
Assay type: ADME, cell-free

- entry.smiles: "C#CCOc1ccc(-c2nc3cc(NC(=O)[C@H](N)Cc4ccccc4)ccc3o2)cc1"
  fraction unbound: "< 0.004"

###

Test system: Mycobacterium tuberculosis
protocol.notes: Antitubercular activity against Mycobacterium tuberculosis H37Rv ATCC 27294 cultured in GAST/Fe media assessed as inhibition of bacterial growth incubated for 7 days
Format: functional
condition.summary: H37Rv ATCC 27294, 168 h, time 7 day
attribute.measured: MIC (µM)

- entry.smiles: "N[C@H](Cc1ccccc1)C(=O)Nc1ccc2ocnc2c1"
  target.system: "Mycobacterium tuberculosis"
  recorded.measurement: 25
- entry.smiles: "N[C@@H](CC(=O)Nc1ccc2oc(-c3ccc(O)cc3)nc2c1)Cc1ccccc1"
  target.system: "Mycobacterium tuberculosis"
  recorded.measurement: 19
- entry.smiles: "COc1ccc(-c2nc3cc(NC(=O)[C@H](N)Cc4ccccc4)ccc3o2)cc1"
  target.system: "Mycobacterium tuberculosis"
  recorded.measurement: 1.56
- entry.smiles: "COc1ccc(-c2nc3cc(NC(=O)[C@H](N)[C@@H](O)c4ccccc4)ccc3o2)cc1"
  target.system: "Mycobacterium tuberculosis"
  recorded.measurement: 25
- entry.smiles: "N[C@H](Cc1ccccc1)C(=O)Nc1ccc2oc(-c3ccc(O)cc3)nc2c1"
  target.system: "Mycobacterium tuberculosis"
  recorded.measurement: 2.3
- entry.smiles: "N[C@H](CCc1ccccc1)C(=O)Nc1ccc2oc(-c3ccc(O)cc3)nc2c1"
  target.system: "Mycobacterium tuberculosis"
  recorded.measurement: 3.13
- entry.smiles: "COc1ccc(-c2nc3cc(NC[C@H](N)Cc4ccccc4)ccc3o2)cc1"
  target.system: "Mycobacterium tuberculosis"
  recorded.measurement: 9.4
- entry.smiles: "COc1ccc(-c2nc3cc(NC(=S)[C@H](N)Cc4ccccc4)ccc3o2)cc1"
  target.system: "Mycobacterium tuberculosis"
  recorded.measurement: 19
- entry.smiles: "N[C@H](Cc1ccccc1)C(=O)Nc1ccc2oc(-c3ccc(OC(F)(F)F)cc3)nc2c1"
  target.system: "Mycobacterium tuberculosis"
  recorded.measurement: 3.13
- entry.smiles: "CCOC(=O)COc1ccc(-c2nc3cc(NC(=O)[C@H](N)Cc4ccccc4)ccc3o2)cc1"
  target.system: "Mycobacterium tuberculosis"
  recorded.measurement: 2.3
- entry.smiles: "COc1ccc(Cc2nc3cc(NC(=O)[C@H](N)Cc4ccccc4)ccc3o2)cc1"
  target.system: "Mycobacterium tuberculosis"
  recorded.measurement: 3.13
- entry.smiles: "COc1ccc(-c2nc3cc(-n4cc([C@H](N)Cc5ccccc5)nn4)ccc3o2)cc1"
  target.system: "Mycobacterium tuberculosis"
  recorded.measurement: 6.25
